Please go through the items and note down their EC50.
tested on: Human immunodeficiency virus 1; experiment: Antiviral activity against HIV1 I135V mutant; type: functional, organism-based
Number in µM, nothing else.

Observed EC50 on Human immunodeficiency virus 1 for CCOC(=O)C12CC1(CC(C)C)c1cc(Cl)ccc1NC2=O (stereo not drawn) , please.
0.085

Observed EC50 on Human immunodeficiency virus 1 for CCCCC12CC1(C(=O)OC)C(=O)Nc1ccc(Cl)cc12 (stereo not drawn) , please.
0.012

Observed EC50 on Human immunodeficiency virus 1 for CCCCCCC12CC1(C(=O)OCC)C(=O)Nc1ccc(Cl)cc12 (stereo not drawn) , please.
0.066

----------
tested on: Human immunodeficiency virus 1; assay: Antiviral activity against HIV1 V106A mutant; format: functional, organism-based
pEC50: −log10 of the molar value.
Assign a class from recorded pEC50; defined classes: group 1 = under 6, group 2 = from 6 up to 7, group 3 = 7 and over

Band for C=CCCCC12CC1(C(=O)OCC)C(=O)Nc1ccc(Cl)cc12 (centres undefined) ?
group 2

Band for O=C1Nc2ccc(Cl)cc2C(C#CC2CC2)(C(F)(F)F)O1 (single isomer, unassigned) ?
group 3

Band for CCCCC12CC1(C(=O)OC)C(=O)Nc1ccc(Cl)cc12 (centres undefined) ?
group 3

Band for "Cc1ccnc2c1NC(=O)c1cccnc1N2C1CC1" ?
group 1

Band for CCCCC12CC1(C(N)=O)C(=O)Nc1ccc(Cl)cc12 (centres undefined) ?
group 1

Band for CCCCC12CC1(COC(C)=O)C(=O)Nc1ccc(Cl)cc12 (centres undefined) ?
group 1

Band for CCOC(=O)C12CC1(CC(C)C)c1cc(Cl)ccc1NC2=O (centres undefined) ?
group 1

Band for CCCCCC12CC1(C(=O)OCC)C(=O)Nc1ccc(Cl)cc12 (centres undefined) ?
group 2

Band for CCCCC12CC1(C(=O)OCC)C(=O)Nc1ccc(Cl)cc12 (centres undefined) ?
group 2

----------
test system: Human immunodeficiency virus 1; experiment: Antiviral activity against HIV1; assay type: functional, organism-based
Rule for this label: Condition met means EC50 is less than 1000 nM; Condition not met means EC50 is at least 1000 nM.

Given the entry CCCCC12CC1(C(=O)Nc1ccc(C(=O)O)cc1)C(=O)Nc1ccc(Cl)cc12 (stereo unspecified) , would its reported EC50 be below 1000 nM?
Condition not met

Given the entry CCCCCC12CC1(C(=O)OCC)C(=O)Nc1ccc(Cl)cc12 (stereo unspecified) , would its reported EC50 be below 1000 nM?
Condition met

Given the entry C=CCCCC12CC1(C(=O)OCC)C(=O)Nc1ccc(Cl)cc12 (stereo unspecified) , would its reported EC50 be below 1000 nM?
Condition met

Given the entry C=CCOC(=O)C12CC1(CCCC)c1cc(Cl)ccc1NC2=O (stereo unspecified) , would its reported EC50 be below 1000 nM?
Condition met

Given the entry CCCCC12CC1(C#N)C(=O)Nc1ccc(Cl)cc12 (stereo unspecified) , would its reported EC50 be below 1000 nM?
Condition met

Given the entry CCCCC(=O)C12CC1(CCCC)c1cc(Cl)ccc1NC2=O (stereo unspecified) , would its reported EC50 be below 1000 nM?
Condition not met

Given the entry CCCCC12CC1(C(=O)Nc1ccccn1)C(=O)Nc1ccc(Cl)cc12 (stereo unspecified) , would its reported EC50 be below 1000 nM?
Condition not met

Given the entry CCCCC12CC1(C(=O)NCC)C(=O)Nc1ccc(Cl)cc12 (stereo unspecified) , would its reported EC50 be below 1000 nM?
Condition met

Given the entry CCOC(=O)C12CC1(C1CCCC1)c1cc(Cl)ccc1NC2=O (stereo unspecified) , would its reported EC50 be below 1000 nM?
Condition not met

Given the entry CCCCC12CC1(C(=O)Nc1ccccc1C(N)=O)C(=O)Nc1ccc(Cl)cc12 (stereo unspecified) , would its reported EC50 be below 1000 nM?
Condition not met

Given the entry CCCCC12CC1(COCC)C(=O)Nc1ccc(Cl)cc12 (stereo unspecified) , would its reported EC50 be below 1000 nM?
Condition met

----------
test system: Human immunodeficiency virus 1; assay: Antiviral activity against HIV1 I135V mutant; assay type: functional, organism-based
Please go through the items and note down their pEC50.
Scale for pEC50: -log10 of concentration given in mol/L; no unit attached.

Any idea what pEC50 was measured for CCCC12CC1(C(=O)OCC)C(=O)Nc1ccc(Cl)cc12 (stereo unspecified) ?
7.01

Any idea what pEC50 was measured for CCCCC12CC1(C(N)=O)C(=O)Nc1ccc(Cl)cc12 (stereo unspecified) ?
7.82

Any idea what pEC50 was measured for CCCCC12CC1(C(=O)OCC)C(=O)Nc1ccc(Cl)cc12 (stereo unspecified) ?
7.55

Any idea what pEC50 was measured for CCCCC12CC1(COC(C)=O)C(=O)Nc1ccc(Cl)cc12 (stereo unspecified) ?
7.19

Any idea what pEC50 was measured for "Cc1ccnc2c1NC(=O)c1cccnc1N2C1CC1" ?
7.10

Any idea what pEC50 was measured for C=CCCCC12CC1(C(=O)OCC)C(=O)Nc1ccc(Cl)cc12 (stereo unspecified) ?
7.48

Any idea what pEC50 was measured for CCCCCC12CC1(C(=O)OCC)C(=O)Nc1ccc(Cl)cc12 (stereo unspecified) ?
7.77

Any idea what pEC50 was measured for O=C1Nc2ccc(Cl)cc2C(C#CC2CC2)(C(F)(F)F)O1 (single isomer, unassigned) ?
9.00

Any idea what pEC50 was measured for CCCCC12CC1(COCC)C(=O)Nc1ccc(Cl)cc12 (stereo unspecified) ?
7.13

Any idea what pEC50 was measured for CCCCC12CC1(COC)C(=O)Nc1ccc(Cl)cc12 (stereo unspecified) ?
7.34

Any idea what pEC50 was measured for C=CCOC(=O)C12CC1(CCCC)c1cc(Cl)ccc1NC2=O (stereo unspecified) ?
7.64

----------
test system: Human immunodeficiency virus 1; assay: Antiviral activity against HIV1; assay type: functional, organism-based
Rule for this label: Condition met means EC50 is less than 200 nM; Condition not met means EC50 is at least 200 nM.

Given the entry CCCCC12CC1(C(=O)OCC)C(=O)Nc1ccc(Cl)cc12 (configuration not stated) , would its reported EC50 be below 200 nM?
Condition met

Given the entry CCCCC12CC1(COC(C)=O)C(=O)Nc1ccc(Cl)cc12 (configuration not stated) , would its reported EC50 be below 200 nM?
Condition met

Given the entry CCCCC12CC1(C(=O)Nc1ccncc1)C(=O)Nc1ccc(Cl)cc12 (configuration not stated) , would its reported EC50 be below 200 nM?
Condition not met

Given the entry CCCCC1(C)c2cc(Cl)ccc2NC(=O)C1C(=O)OCC (configuration not stated) , would its reported EC50 be below 200 nM?
Condition not met

Given the entry CCOC(=O)C12CC1(CCc1ccccc1)c1cc(Cl)ccc1NC2=O (configuration not stated) , would its reported EC50 be below 200 nM?
Condition not met

Given the entry CCCCC12CC1(C(=O)CC1CC1)C(=O)Nc1ccc(Cl)cc12 (configuration not stated) , would its reported EC50 be below 200 nM?
Condition not met

Given the entry CCOC(=O)C12CC1(c1ccc(-c3ccccc3)cc1)c1cc(Cl)ccc1NC2=O (configuration not stated) , would its reported EC50 be below 200 nM?
Condition not met

Given the entry CCCCC12CC1(C(=O)NCCC(=O)O)C(=O)Nc1ccc(Cl)cc12 (configuration not stated) , would its reported EC50 be below 200 nM?
Condition not met

Given the entry CCCCC12CC1(C(=O)Nc1ccc(C(N)=O)cc1)C(=O)Nc1ccc(Cl)cc12 (configuration not stated) , would its reported EC50 be below 200 nM?
Condition not met

Given the entry CCCCC12CC1(C(=O)NCc1ccccc1)C(=O)Nc1ccc(Cl)cc12 (configuration not stated) , would its reported EC50 be below 200 nM?
Condition not met

Given the entry CCCCC12CC1(C(=O)OCC=C(C)C)C(=O)Nc1ccc(Cl)cc12 (configuration not stated) , would its reported EC50 be below 200 nM?
Condition not met

Given the entry CCCCC12CC1(C(=O)N1CCC1)C(=O)Nc1ccc(Cl)cc12 (configuration not stated) , would its reported EC50 be below 200 nM?
Condition not met

Given the entry CCCCC12CC1(COC)C(=O)Nc1ccc(Cl)cc12 (configuration not stated) , would its reported EC50 be below 200 nM?
Condition met

Given the entry CCCCC12CC1(C(=O)OCCC#N)C(=O)Nc1ccc(Cl)cc12 (configuration not stated) , would its reported EC50 be below 200 nM?
Condition met

Given the entry CCOC(=O)C12CC1(C)c1cc(Cl)ccc1NC2=O (configuration not stated) , would its reported EC50 be below 200 nM?
Condition not met

Given the entry CCCCC12CCC1(C(=O)OCC)C(=O)Nc1ccc(Cl)cc12 (configuration not stated) , would its reported EC50 be below 200 nM?
Condition met

Given the entry CCCCC12CC1(C(=O)Nc1ccccc1C#N)C(=O)Nc1ccc(Cl)cc12 (configuration not stated) , would its reported EC50 be below 200 nM?
Condition not met

Given the entry CCCCC12CC1(C(=O)N(C)CC)C(=O)Nc1ccc(Cl)cc12 (configuration not stated) , would its reported EC50 be below 200 nM?
Condition not met

Given the entry "CCCCc1c(C(=O)OCC)c(O)nc2ccc(Cl)cc12" , would its reported EC50 be below 200 nM?
Condition met

Given the entry CCCC12CC1(C(=O)OCC)C(=O)Nc1ccc(Cl)cc12 (configuration not stated) , would its reported EC50 be below 200 nM?
Condition met

Given the entry CCCCC12CC1(C(=O)NC(C)C)C(=O)Nc1ccc(Cl)cc12 (configuration not stated) , would its reported EC50 be below 200 nM?
Condition not met

Given the entry CCOC(=O)C12CC1(C1CC1)c1cc(Cl)ccc1NC2=O (configuration not stated) , would its reported EC50 be below 200 nM?
Condition not met

Given the entry CCCCC12CC1(C(=O)N1CCCC1)C(=O)Nc1ccc(Cl)cc12 (configuration not stated) , would its reported EC50 be below 200 nM?
Condition not met

Given the entry CCOC(=O)C12CC1(CC)c1cc(Cl)ccc1NC2=O (configuration not stated) , would its reported EC50 be below 200 nM?
Condition not met

Given the entry CCCCC12CC1(C(=O)Nc1cccc(C#N)c1)C(=O)Nc1ccc(Cl)cc12 (configuration not stated) , would its reported EC50 be below 200 nM?
Condition met

Given the entry CCCCC12CC1(C(=O)Oc1ccccc1)C(=O)Nc1ccc(Cl)cc12 (configuration not stated) , would its reported EC50 be below 200 nM?
Condition not met

Given the entry CCCCCCC12CC1(C(=O)OCC)C(=O)Nc1ccc(Cl)cc12 (configuration not stated) , would its reported EC50 be below 200 nM?
Condition met
